Target: UHRF1_SRA binding to hemimethylated DNA (Homo sapiens, UniProt Q96T88)
Construct: made in house; host or cells: E. coli BL-21 Gold
Sequence (Q96T88 419-582 limits assumed): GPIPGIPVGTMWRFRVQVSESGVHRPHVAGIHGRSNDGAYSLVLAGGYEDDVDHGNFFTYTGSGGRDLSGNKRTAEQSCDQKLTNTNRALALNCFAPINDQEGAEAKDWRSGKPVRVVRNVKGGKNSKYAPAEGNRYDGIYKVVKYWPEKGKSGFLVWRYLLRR
Test: LOPAC primary screen with the TR-FRET assay
Conditions: 20 μM; hit = Z-score < −4.08, Bonferroni adjusted p-value < 0.05
metric_name: Inhibition of UHRF1_SRA binding to hemimethylated DNA in pilot screen

molecule | endpoint_value
NC(Cc1cc(O)c(O)cc1O)C(=O)O (racemic) [6-OH-DL-DOPA] | significantly inhibited
CN(N=O)c1cc(O)ccc1O [dephostatin] | significantly inhibited
Cc1ccc(C(=O)Nc2ccc(S(=O)(=O)O)c3cc(S(=O)(=O)O)cc(S(=O)(=O)O)c23)cc1NC(=O)c1cccc(NC(=O)Nc2cccc(C(=O)Nc3cc(C(=O)Nc4ccc(S(=O)(=O)O)c5cc(S(=O)(=O)O)cc(S(=O)(=O)O)c45)ccc3C)c2)c1 [Suramin] | significantly inhibited
Cc1nc(N=Nc2cc(S(=O)(=O)O)c3cc([N+](=O)[O-])cc(S(=O)(=O)O)c3c2)c(COP(=O)(O)O)c(C=O)c1O [PPNDS] | significantly inhibited
Nc1c(S(=O)(=O)O)cc(Nc2ccc(Nc3nc(Cl)nc(Nc4cccc(S(=O)(=O)O)c4)n3)c(S(=O)(=O)O)c2)c2c1C(=O)c1ccccc1C2=O [Reactive Blue 2] | significantly inhibited
O=C(O)C1=CC(=C(c2ccc(O)c(C(=O)O)c2)c2ccc(O)c(C(=O)O)c2)C=CC1=O [aurintricarboxylic acid] | significantly inhibited

Here are 5 molecules. What values of Inhibition of UHRF1_SRA binding to hemimethylated DNA in pilot screen were reported for them?
1. O=C(Nc1cc(C(=O)Nc2ccc(S(=O)(=O)O)cc2S(=O)(=O)O)cc(C(=O)Nc2ccc(S(=O)(=O)O)cc2S(=O)(=O)O)c1)Nc1cc(C(=O)Nc2ccc(S(=O)(=O)O)cc2S(=O)(=O)O)cc(C(=O)Nc2ccc(S(=O)(=O)O)cc2S(=O)(=O)O)c1 [NF449]
2. CC(=O)[C@]1(O)Cc2c(O)c3c(c(O)c2[C@@H](O[C@H]2C[C@H](N)[C@H](O)[C@H](C)O2)C1)C(=O)c1ccccc1C3=O [idarubicin]
3. O=C(Nc1cccc(C(=O)Nc2ccc(S(=O)(=O)O)c3cc(S(=O)(=O)O)cc(S(=O)(=O)O)c23)c1)Nc1cccc(C(=O)Nc2ccc(S(=O)(=O)O)c3cc(S(=O)(=O)O)cc(S(=O)(=O)O)c23)c1 [NF023]
4. CN(N=O)c1ccc(O)c(O)c1 [methyl-3,4-dephostatin]
5. O=C1c2c(O)ccc(O)c2C(=O)c2c(NCCNCCO)ccc(NCCNCCO)c21 [mitoxantrone]

Response line:
1. significantly inhibited
2. significantly inhibited
3. significantly inhibited
4. significantly inhibited
5. significantly inhibited

Respectfully, I request Inhibition of UHRF1_SRA binding to hemimethylated DNA in pilot screen for each entry included below.
1. N#CC(C#N)=C(N)/C(C#N)=C/c1cc(O)c(O)c(O)c1 [tyrphostin 51]
2. N=C1Sc2ccccc2C2=NCCCN12 [PD404,182]
3. S=C=Nc1ccc2oc(C3=NCCN3)cc2c1 [BU99006]

Response line:
1: significantly inhibited; 2: significantly inhibited; 3: significantly inhibited

---

Biological target: UHRF1_SRA binding to hemimethylated DNA (Homo sapiens, UniProt Q96T88)
Construct: made in house; host or cells: E. coli BL-21 Gold
Test: TR-FRET assay, dose-response inhibition of UHRF1_SRA binding to FAM-labeled hemimethylated DNA
metric_name: IC50 (nM)
One number for each entry, in nM.

Prompt line: Requested read-out: IC50. Entry: COc1cccc2c1C(=O)c1c(O)c3c(c(O)c1C2=O)C[C@@](O)(C(=O)CO)C[C@@H]3O[C@H]1C[C@H](N)[C@H](O)[C@H](C)O1 [doxorubicin]
Response line: 131

---

Assignment: determine reported log10 of IC50 for the given molecules.
Target: UHRF1_SRA binding to hemimethylated DNA (Homo sapiens)
Construct: made in house; host or cells: E. coli BL-21 Gold
Experiment: TR-FRET assay, dose-response inhibition of UHRF1_SRA binding to FAM-labeled hemimethylated DNA
Conditions: 125 nM UHRF1_SRA, 100 nM FAM-labeled hemimethylated oligo; read-out: IC50 of inhibition of UHRF1_SRA binding to labeled hemimethylated DNA
Annotation: log10 of IC50, nM basis.

Known results for molecules:
molecular_string | log10 of IC50
O=C(Nc1cccc(C(=O)Nc2ccc(S(=O)(=O)O)c3cc(S(=O)(=O)O)cc(S(=O)(=O)O)c23)c1)Nc1cccc(C(=O)Nc2ccc(S(=O)(=O)O)c3cc(S(=O)(=O)O)cc(S(=O)(=O)O)c23)c1 | 2.92
CC(=O)[C@]1(O)Cc2c(O)c3c(c(O)c2[C@@H](O[C@H]2C[C@H](N)[C@H](O)[C@H](C)O2)C1)C(=O)c1ccccc1C3=O | 2.77
O=C(Nc1cc(C(=O)Nc2ccc(S(=O)(=O)O)cc2S(=O)(=O)O)cc(C(=O)Nc2ccc(S(=O)(=O)O)cc2S(=O)(=O)O)c1)Nc1cc(C(=O)Nc2ccc(S(=O)(=O)O)cc2S(=O)(=O)O)cc(C(=O)Nc2ccc(S(=O)(=O)O)cc2S(=O)(=O)O)c1 | 2.59
Cc1nc(N=Nc2cc(S(=O)(=O)O)c3cc([N+](=O)[O-])cc(S(=O)(=O)O)c3c2)c(COP(=O)(O)O)c(C=O)c1O | 2.89
COc1cccc2c1C(=O)c1c(O)c3c(c(O)c1C2=O)C[C@@](O)(C(C)=O)C[C@@H]3O[C@H]1C[C@H](N)[C@H](O)[C@H](C)O1 | 2.50
O=C1c2c(O)ccc(O)c2C(=O)c2c(NCCNCCO)ccc(NCCNCCO)c21 | 2.13

Could you tell me log10 of IC50 for each of these molecules? They are listed below.
1. O=C(O)C1=CC(=C(c2ccc(O)c(C(=O)O)c2)c2ccc(O)c(C(=O)O)c2)C=CC1=O
2. Cc1ccc(C(=O)Nc2ccc(S(=O)(=O)O)c3cc(S(=O)(=O)O)cc(S(=O)(=O)O)c23)cc1NC(=O)c1cccc(NC(=O)Nc2cccc(C(=O)Nc3cc(C(=O)Nc4ccc(S(=O)(=O)O)c5cc(S(=O)(=O)O)cc(S(=O)(=O)O)c45)ccc3C)c2)c1
3. NCCNc1ccc(NCCN)c2c1C(=O)c1ccncc1C2=O

Response line:
1.32
3.35
2.75
